Test system: HCC-2998 colon
Test protocol: NCI-60 one-dose screen, 48 h
Condition summary: 10 µM
This is part of a sample that, as a whole, favours compounds with a hit. Of some 83,000 tested, about 20% had one in any assay. The source made the active and inactive calls. How the source made its calls: active means growth percent below 10; inactive means the rest.
Possible outcomes: active, inactive

>  <Molecule>
Cc1cc(C(F)(F)F)ccc1C(=O)Nc1sc2c(c1C#N)CCC(=O)C2

>  <Assigned category>
active

$$$$
>  <Molecule>
Cc1ccc2nc(-c3ccc(-c4nnc(SCC(=O)Nc5ccc(Cl)cc5)o4)cc3)[nH]c2c1

>  <Assigned category>
inactive

$$$$
>  <Molecule>
COc1ccccc1NCc1ccc(CO)n1-c1ccc(C)cc1

>  <Assigned category>
inactive

$$$$
>  <Molecule>
O=C(c1ccc(O)cc1)C1[C@H](c2ccc(Br)cc2)[C@@H](c2ccccc2)NC12C(=O)Nc1ccc(Br)cc12 (stereo not given in full)

>  <Assigned category>
active

$$$$
>  <Molecule>
Cn1cc(/C=N/Nc2ccnc3cc(Cl)ccc23)c2ccccc21

>  <Assigned category>
active

$$$$
>  <Molecule>
Cc1noc2c(Cc3ccc([N+](=O)[O-])cc3)nn(CC(=O)N/N=C/c3ccc(Cl)cc3)c(=O)c12

>  <Assigned category>
inactive

$$$$
>  <Molecule>
Cn1c(O)c(N=Nc2nc(-c3cc4ccccc4oc3=O)cs2)c2cc(Br)ccc21

>  <Assigned category>
inactive

$$$$
>  <Molecule>
COc1ccc2[nH]c(=O)c(CSc3cccc(N)c3)cc2c1

>  <Assigned category>
inactive

$$$$
>  <Molecule>
CC(C)(C)c1ccc(NCc2cn(-c3ccc(C(=O)O)cc3)nc2-c2ccc(C#N)cc2)cc1

>  <Assigned category>
active

$$$$
>  <Molecule>
CN1CCN(c2ccc(Nc3nc(NCCCNC(=O)C4CCCCC4)c4sccc4n3)cc2)CC1

>  <Assigned category>
inactive

$$$$

###

System: SK-OV-3 ovarian
Test protocol: NCI-60 one-dose screen, 48 h (100 = growth as untreated, 0 = no growth, -100 = all killed)
Condition summary: 10 µM
The panel holds about 83,000 compounds, 20% with a hit somewhere; the sample as a whole holds those more often.
// growth lookup, one value per entry

>  <Smiles text>
COC[C@@H](CC(C)C)N=C1N/C(=C\c2ccc3ncsc3c2)C(=O)N1C

>  <growth [%]>
0.794

$$$$
>  <Smiles text>
COc1nccnc1NS(=O)(=O)c1ccc(NC2=C(Cl)C(=O)c3nc(C)ccc3C2=O)cc1

>  <growth [%]>
91.4

$$$$
>  <Smiles text>
COC(=O)C[C@](O)(CCCC(C)(C)O)C(=O)O[C@H]1C(OC)=C[C@@]23CCC(=O)N2CCc2cc4c(cc2[C@@H]13)OCO4

>  <growth [%]>
103

$$$$
>  <Smiles text>
COc1cc(/C=C/C(=O)c2ccc(C(F)(F)F)cc2)ccc1Oc1nc(Nc2ccc(F)cc2)nc(N(C)C)n1

>  <growth [%]>
103

$$$$
>  <Smiles text>
O=C(Nc1ccc(OCC(=O)c2ccccc2)cc1)Nc1ccc(Cl)c(C(F)(F)F)c1

>  <growth [%]>
16.4

$$$$
>  <Smiles text>
O=C(NO)c1ccc(CNC(=O)[C@H]2Cc3c([nH]c4ccccc34)[C@H](c3ccc(Cl)cc3)N2)cc1

>  <growth [%]>
-12.7

$$$$
>  <Smiles text>
N#Cc1c(-c2ccc(F)cc2)nc(SCc2ccc(F)cc2)nc1N1CCOCC1

>  <growth [%]>
39.6

$$$$
>  <Smiles text>
CCN1CCN(c2ccc(NC(=O)Nc3ccc(-c4cc(C(=O)NC(C)C)c5ncccc5n4)cc3)cc2C(F)(F)F)CC1

>  <growth [%]>
-91

$$$$

###

Tested on: M14 melanoma
Test protocol: NCI-60 one-dose screen, 48 h
Condition summary: 10 µM
About 83,000 compounds went through this panel and 20% of them were active in at least one assay; those are over-represented in the sample as a whole. Activity calls are given as the source filed them. How the source made its calls: active means growth percent below 10; inactive means the rest.
Possible outcomes: active, inactive

>  <Smiles text>
Cc1cc(=O)oc2cc(OCCCCOc3ccc(/C=C/C(=O)Nc4cccc(Cl)c4)cc3)ccc12

>  <Target desc>
M14 melanoma

>  <Assigned category>
inactive

$$$$
>  <Smiles text>
COc1cc(NC(=O)c2cc(-c3ccc(F)cc3F)ccc2O)cc(OC)c1OC

>  <Target desc>
M14 melanoma

>  <Assigned category>
inactive

$$$$
>  <Smiles text>
COc1ccc(C(=O)Nc2sc3c(c2C#N)CCC(=O)C3)cc1C(F)(F)F

>  <Target desc>
M14 melanoma

>  <Assigned category>
active

$$$$
>  <Smiles text>
CCCCSc1nc(Nc2ccc(/C(C)=N/NC(N)=S)cc2)c(C#N)c(-c2ccc(F)cc2)n1

>  <Target desc>
M14 melanoma

>  <Assigned category>
inactive

$$$$
>  <Smiles text>
Cn1cc(/C=N/Nc2ccnc3cc(Cl)ccc23)c2ccccc21

>  <Target desc>
M14 melanoma

>  <Assigned category>
active

$$$$
>  <Smiles text>
COc1ccc2cc([C@H](C)C(=O)NCc3ccccc3)ccc2c1

>  <Target desc>
M14 melanoma

>  <Assigned category>
inactive

$$$$
>  <Smiles text>
CN1CCN(Cc2ccc(NC(=O)c3cncc(C#Cc4cnc5ccc(N[C@@H]6CCOC6)nn45)c3)cc2C(F)(F)F)CC1

>  <Target desc>
M14 melanoma

>  <Assigned category>
active

$$$$
>  <Smiles text>
O=c1[nH]c2ccc(Cl)cc2cc1CSc1ccc(Nc2nccc(-c3ccc(Cl)cc3)n2)cc1

>  <Target desc>
M14 melanoma

>  <Assigned category>
inactive

$$$$
>  <Smiles text>
C/C(=N\N=C\c1ccc(N(C)C)cc1)c1ccc2c(c1)Nc1ccccc1S2

>  <Target desc>
M14 melanoma

>  <Assigned category>
inactive

$$$$
>  <Smiles text>
CN1CCN(c2ccc(Nc3nc(N4CCN(S(=O)(=O)c5ccc(F)cc5)CC4)c4sccc4n3)cc2)CC1

>  <Target desc>
M14 melanoma

>  <Assigned category>
active

$$$$
>  <Smiles text>
COc1ccc2c(c1)N=C(C(=O)O)/C2=C/c1sc(Nc2ccc(O)cc2)nc1O

>  <Target desc>
M14 melanoma

>  <Assigned category>
inactive

$$$$
>  <Smiles text>
[2H]C([2H])([2H])Oc1ccc2ncc(C#Cc3cncc(C(=O)Nc4ccc(CN5CCN(C)CC5)c(C(F)(F)F)c4)c3)n2n1

>  <Target desc>
M14 melanoma

>  <Assigned category>
active

$$$$
>  <Smiles text>
NS(=O)(=O)c1ccc(NC(=O)CSc2ccc(-c3ccc(Cl)cc3)nn2)c(Br)c1

>  <Target desc>
M14 melanoma

>  <Assigned category>
inactive

$$$$
>  <Smiles text>
COc1cccc(-c2nn(-c3ccccc3)cc2-c2ccnc(NCCCNC(=O)Nc3ccc(F)cc3)c2)c1

>  <Target desc>
M14 melanoma

>  <Assigned category>
active

$$$$
>  <Smiles text>
N#Cc1c(NC(=O)c2ccc(C(F)(F)F)cc2)sc2c1CCC(=O)C2

>  <Target desc>
M14 melanoma

>  <Assigned category>
active

$$$$
>  <Smiles text>
O=C1NC(=NC23CC4CC(CC(C4)C2)C3)N/C1=C\c1ccc2ncccc2n1

>  <Target desc>
M14 melanoma

>  <Assigned category>
inactive

$$$$
>  <Smiles text>
C/C(=C\c1ccc(O)cc1O)c1ccc2ccc(O)cc2[o+]1

>  <Target desc>
M14 melanoma

>  <Assigned category>
inactive

$$$$
>  <Smiles text>
O=C(Nc1ccncc1)c1ccc(-n2c(=O)[nH]c3ccccc3c2=O)cc1

>  <Target desc>
M14 melanoma

>  <Assigned category>
inactive

$$$$
>  <Smiles text>
Nc1nnc(-c2c[nH]c3ncccc23)c(-c2c[nH]c3ccc(Br)cc23)n1

>  <Target desc>
M14 melanoma

>  <Assigned category>
inactive

$$$$

###

System: NCI/ADR-RES ovarian
Test protocol: NCI-60 one-dose screen, 48 h
Condition summary: 10 µM
The panel holds about 83,000 compounds, 20% with a hit somewhere; the sample as a whole holds those more often. Calls of active or inactive are those of the source. The calls were made as follows: active = growth percent below 10; inactive = the rest.
Possible outcomes: label 1 for active, label 0 for inactive

>  <Compound>
CN(C)c1ccc(/C=C/c2nc3ccccc3c(=O)n2CC(=O)Nc2ccccc2)cc1

>  <Target desc>
NCI/ADR-RES ovarian

>  <Assigned category>
label 0

$$$$
>  <Compound>
COc1ccc(C(C)=C(c2ccc(OCCCN(C)C)cc2)c2ccc(OCCCN(C)C)cc2)cc1

>  <Target desc>
NCI/ADR-RES ovarian

>  <Assigned category>
label 1

$$$$
>  <Compound>
O=C(NO)c1ccc(CN2CCN(c3nc(-c4ccccc4)c4ccccc4n3)CC2)cc1

>  <Target desc>
NCI/ADR-RES ovarian

>  <Assigned category>
label 1

$$$$
>  <Compound>
CC(=O)Nc1ccc(-n2cnc3cc(-c4ccc(NS(C)(=O)=O)cc4)ccc32)cc1

>  <Target desc>
NCI/ADR-RES ovarian

>  <Assigned category>
label 0

$$$$
>  <Compound>
[2H]C([2H])([2H])Oc1ccc2ncc(C#Cc3cncc(C(=O)Nc4ccc(CN5CCN(C)CC5)c(C(F)(F)F)c4)c3)n2n1

>  <Target desc>
NCI/ADR-RES ovarian

>  <Assigned category>
label 1

$$$$
>  <Compound>
C=C1CCC2C3(C)COC(c4cccc(F)c4)OC3CCC2(C)C1CC(O)C1=CCOC1=O (centres undefined)

>  <Target desc>
NCI/ADR-RES ovarian

>  <Assigned category>
label 1

$$$$
>  <Compound>
CCN1CCN(Cc2ccc(NC(=O)c3cccc(-n4cc(-c5ccc(NC(C)=O)nc5)nn4)c3)cc2C(F)(F)F)CC1

>  <Target desc>
NCI/ADR-RES ovarian

>  <Assigned category>
label 0

$$$$
>  <Compound>
O/N=C(\CSc1nnc(-c2c[nH]c3ccccc23)n1-c1ccccc1)c1ccc(Br)cc1

>  <Target desc>
NCI/ADR-RES ovarian

>  <Assigned category>
label 1

$$$$
>  <Compound>
COc1ccc(C(=O)CSc2nnc(-c3c[nH]c4ccccc34)n2-c2ccccc2)cc1

>  <Target desc>
NCI/ADR-RES ovarian

>  <Assigned category>
label 0

$$$$
